Attribution: patent US20260116991A1

biological target: T1, murine GPC3-his protein (Sino Biological, Cat. No. 50989-M08B) (murine, UniProt Q8CFZ4 25-558); experiment: ELISA, coated murine GPC3-His;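 also: antigen coated on plates at 1 µg/mL, test antibody bound for 2 h at 37 °C, detected with HRP-conjugated secondary antibody and TMB substrate after acid stop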
T1 construct: Bought protein; also called murine GPC3 protein
T1 sequence (Q8CFZ4 25-558 limits assumed): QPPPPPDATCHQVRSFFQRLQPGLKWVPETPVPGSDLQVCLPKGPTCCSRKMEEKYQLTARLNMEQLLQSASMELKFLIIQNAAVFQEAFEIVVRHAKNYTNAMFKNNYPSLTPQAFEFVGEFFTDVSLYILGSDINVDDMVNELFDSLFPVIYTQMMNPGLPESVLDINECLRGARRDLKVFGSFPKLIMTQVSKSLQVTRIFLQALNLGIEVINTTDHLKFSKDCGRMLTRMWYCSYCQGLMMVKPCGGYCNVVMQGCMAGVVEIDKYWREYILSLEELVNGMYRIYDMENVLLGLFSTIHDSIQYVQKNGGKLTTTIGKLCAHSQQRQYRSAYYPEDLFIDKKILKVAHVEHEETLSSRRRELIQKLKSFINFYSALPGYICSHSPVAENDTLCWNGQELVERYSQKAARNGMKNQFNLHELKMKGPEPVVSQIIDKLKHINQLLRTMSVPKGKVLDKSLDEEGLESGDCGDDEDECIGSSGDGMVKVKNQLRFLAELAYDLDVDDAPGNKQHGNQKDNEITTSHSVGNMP
OD450 at 0.01 nM antibody listing for selected binders.

| Binder | OD450 at 0.01 nM antibody (OD450 nm) |
| --- | --- |
| F1.136.7 human-murine chimeric antibody (antibody, human IgG1, kappa, V domains shown) VH: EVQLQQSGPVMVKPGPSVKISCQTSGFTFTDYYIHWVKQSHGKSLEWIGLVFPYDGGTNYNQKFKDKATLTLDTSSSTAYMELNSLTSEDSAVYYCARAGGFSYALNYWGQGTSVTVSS VL: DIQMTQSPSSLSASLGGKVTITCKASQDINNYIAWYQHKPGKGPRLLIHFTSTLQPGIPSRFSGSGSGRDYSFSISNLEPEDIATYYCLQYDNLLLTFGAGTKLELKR | 0.06 |
| F1.110.24 human-murine chimeric antibody (antibody, human IgG1, kappa, V domains shown) VH: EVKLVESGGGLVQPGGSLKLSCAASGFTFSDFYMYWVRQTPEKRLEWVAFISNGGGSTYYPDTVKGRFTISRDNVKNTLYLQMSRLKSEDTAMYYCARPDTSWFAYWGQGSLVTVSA VL: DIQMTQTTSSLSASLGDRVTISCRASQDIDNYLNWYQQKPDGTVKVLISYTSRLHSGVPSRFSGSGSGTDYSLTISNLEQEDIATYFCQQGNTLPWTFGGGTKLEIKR | 0.05 |
| F1.118.4 human-murine chimeric antibody (antibody, human IgG1, kappa, V domains shown) VH: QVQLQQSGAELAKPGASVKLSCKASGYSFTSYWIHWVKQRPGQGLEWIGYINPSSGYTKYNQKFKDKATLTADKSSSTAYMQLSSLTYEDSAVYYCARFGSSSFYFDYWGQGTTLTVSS VL: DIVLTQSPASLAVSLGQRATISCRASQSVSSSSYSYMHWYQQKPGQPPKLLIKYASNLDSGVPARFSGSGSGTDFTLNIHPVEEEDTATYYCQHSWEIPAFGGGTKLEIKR | 0.05 |
| F1.83.6 human-murine chimeric antibody (antibody, human IgG1, kappa, V domains shown) VH: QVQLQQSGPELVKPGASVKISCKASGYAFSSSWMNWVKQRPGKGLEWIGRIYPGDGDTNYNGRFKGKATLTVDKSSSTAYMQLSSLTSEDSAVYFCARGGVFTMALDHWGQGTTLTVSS VL: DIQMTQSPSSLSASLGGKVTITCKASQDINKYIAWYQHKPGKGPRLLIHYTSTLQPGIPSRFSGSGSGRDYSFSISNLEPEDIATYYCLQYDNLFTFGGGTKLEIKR | 0.06 |
| F4.18.4 human-murine chimeric antibody (antibody, human IgG1, kappa, V domains shown) VH: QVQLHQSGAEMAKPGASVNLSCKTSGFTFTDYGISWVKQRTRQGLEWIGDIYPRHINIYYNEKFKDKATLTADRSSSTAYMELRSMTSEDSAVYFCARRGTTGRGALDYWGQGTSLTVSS VL: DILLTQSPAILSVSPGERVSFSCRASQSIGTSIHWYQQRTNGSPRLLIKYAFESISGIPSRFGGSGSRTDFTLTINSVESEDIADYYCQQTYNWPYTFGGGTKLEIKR | 0.1 |
